target: human TLR7 (Homo sapiens, UniProt Q9NYK1); construct: HA; host or cells: 293XL-hTLR7-HA (HEK293); test: HEK-TLR7 NF-κB-luciferase reporter, R848 stimulation; assay type: cell-based; conditions: MOE-modified ASO at 100 nM; averaged NF-κB-Luciferase relative to R848 condition
Short version: TLR7 100 nM at least 0.6 is Criterion met, less is Criterion not met.

Take a look at these entries with their results.
residue-sequence: CGGCATCCACCACGTCGTCC (antisense; 2'-MOE modified, pattern not given here) [EGFR-3267 MOE]
class-assignment: Criterion not met
//
residue-sequence: CCAACACTTCGTGGGGTCCT (antisense; 2'-MOE modified, pattern not given here) [HPRT-666 MOE]
class-assignment: Criterion met
//
residue-sequence: AACACTTCGTGGGGTCCTTT (antisense; 2'-MOE modified, pattern not given here) [HPRT-664 MOE]
class-assignment: Criterion not met
//
residue-sequence: GCCCATCCATGAGGTCCTGG (antisense; 2'-MOE modified, pattern not given here) [CTNN2B-2545 MOE]
class-assignment: Criterion not met
//
residue-sequence: GGAGGTCTTGGCTTCGTGGA (antisense; 2'-MOE modified, pattern not given here) [MB21D1-524 MOE]
class-assignment: Criterion not met

Data request: Quick check: does ATCCAACACTTCGTGGGGTC (antisense; 2'-MOE modified, pattern not given here) [HPRT-668 MOE] have TLR7 100 nM greater than or equal to 0.6?
Data returned: Criterion met

###

Target: human TLR7 (Homo sapiens, UniProt Q9NYK1)
Construct: HA; host or cells: 293XL-hTLR7-HA (HEK293)
Sequence (Q9NYK1 27-1049): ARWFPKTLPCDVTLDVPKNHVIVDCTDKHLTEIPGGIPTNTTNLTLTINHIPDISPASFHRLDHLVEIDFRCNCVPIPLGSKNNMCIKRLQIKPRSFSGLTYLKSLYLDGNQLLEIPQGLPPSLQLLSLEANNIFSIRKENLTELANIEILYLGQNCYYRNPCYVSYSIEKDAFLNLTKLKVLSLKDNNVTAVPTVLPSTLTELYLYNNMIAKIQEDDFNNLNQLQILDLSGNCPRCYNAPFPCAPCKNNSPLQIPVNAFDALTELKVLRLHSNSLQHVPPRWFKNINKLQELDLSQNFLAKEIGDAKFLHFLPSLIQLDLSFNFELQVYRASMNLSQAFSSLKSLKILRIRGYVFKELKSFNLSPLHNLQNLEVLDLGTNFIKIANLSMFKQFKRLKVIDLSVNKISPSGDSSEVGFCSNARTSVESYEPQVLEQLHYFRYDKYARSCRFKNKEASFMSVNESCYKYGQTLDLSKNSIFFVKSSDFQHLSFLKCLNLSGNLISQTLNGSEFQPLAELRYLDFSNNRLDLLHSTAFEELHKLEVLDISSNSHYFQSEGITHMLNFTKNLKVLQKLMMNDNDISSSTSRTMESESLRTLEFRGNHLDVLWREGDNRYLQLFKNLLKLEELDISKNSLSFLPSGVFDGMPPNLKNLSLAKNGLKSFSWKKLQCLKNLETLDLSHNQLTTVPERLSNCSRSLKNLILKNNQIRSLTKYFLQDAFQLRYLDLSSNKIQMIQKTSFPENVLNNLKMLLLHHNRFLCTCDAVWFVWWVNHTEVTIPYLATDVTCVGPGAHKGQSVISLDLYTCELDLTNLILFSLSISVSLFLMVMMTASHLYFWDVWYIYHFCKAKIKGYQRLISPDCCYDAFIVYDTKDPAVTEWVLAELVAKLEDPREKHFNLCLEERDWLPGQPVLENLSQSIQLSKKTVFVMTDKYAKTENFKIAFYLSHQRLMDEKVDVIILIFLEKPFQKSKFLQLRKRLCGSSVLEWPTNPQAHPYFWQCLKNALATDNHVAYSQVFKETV
Assay: HEK-TLR7 NF-κB-luciferase reporter, R848 stimulation
Format: cell-based
Conditions: ASO 500 nM; relative to R848 only, given as fraction
Could you please report measured TLR7 500 nM (averaged NF-κB-Luciferase level relative to R848 condition) for the items listed next?
One number for each entry.

residue-sequence: GTGTCTGGAAGCTTCC (antisense; LNA-modified, pattern not given here) [CTNN2B-809 LNA V1]
assayed-target: human TLR7 (Homo sapiens, UniProt Q9NYK1)
assay-result: 0.067
--
residue-sequence: GTCCTTGCACGTGGCT (antisense; LNA-modified, pattern not given here) [EGFR-1015 LNA V1]
assayed-target: human TLR7 (Homo sapiens, UniProt Q9NYK1)
assay-result: 0.251
--
residue-sequence: GATGGCCTCCCATCTC (antisense; LNA-modified, pattern not given here) [HPRT LNA-331 V1]
assayed-target: human TLR7 (Homo sapiens, UniProt Q9NYK1)
assay-result: 0.119

From here, focus on the item given below.
Data request: Entry AGATTTCAGAGCAGCT (antisense; LNA-modified, pattern not given here) [EGFR-4885 LNA KL] needs its TLR7 500 nM (averaged NF-κB-Luciferase level relative to R848 condition) filled in; supply it.
Data returned: 0.021
